From: ChEMBL document CHEMBL1138715

System: Staphylococcus aureus
Experiment: In vitro inhibitory activity against Staphylococcus aureus
Assay type: functional
attribute measured: pIC50
Numbers only, as −log10 of the molar value.

{"columns": ["molecule", "attribute measured", "numeric result"],
 "data": [
  ["COc1ccc(SCc2cc(C(=O)NO)no2)cc1", "pIC50", 4.62]
]}

For every item below, please supply its pIC50.
1. O=C(NO)c1cc(CSc2ccccc2C(F)(F)F)on1
2. O=C(NO)c1cc(CS(=O)(=O)c2ccc(Cl)cc2)on1

Ans:
5.03
6.10

---

System: Escherichia coli
Assay: In vitro inhibitory activity against Escherichia coli
Type: functional
attribute measured: pIC50
Answers are plain numbers, as −log10 of the molar value.

Q: Return the recorded pIC50 value; entry: `Cc1ccc(S(=O)(=O)Cc2cc(C(=O)NO)no2)cc1`
Ans: 4.94

---

Task for the reader: assign each of the following molecules its reported MIC.
Test system: Escherichia coli
Assay: In vitro antibacterial activity against Escherichia coli wild type EC-ATCC-25922
Format: functional

{"columns": ["smiles notation", "result"],
 "data": [
  ["O=C(NO)c1cc(CSc2ccc(Cl)c(Cl)c2)on1", "> 128 µg/mL"],
  ["O=C(NO)c1cc(CSc2ccc(Cl)cc2)on1", "128 µg/mL"],
  ["O=C(NO)c1cc(CSc2cccc(Cl)c2)on1", "> 128 µg/mL"]
]}

Alright, here's another molecule for you.
Q: Indicate its recorded MIC; the molecule in question is `COc1cccc(SCc2cc(C(=O)NO)no2)c1`
Ans: > 128 µg/mL

---

Exercise: for every item that follows, state its recorded pIC50.
System: Staphylococcus aureus
Test: In vitro inhibitory activity against Staphylococcus aureus
Type: functional
Numbers only, as −log10 of the molar value.

{"columns": ["molecule", "pIC50"],
 "data": [
  ["Cc1ccc(SCc2cc(C(=O)NO)no2)cc1", 5.40]
]}

For every listed record, write down its pIC50.
1. O=C(NO)c1cc(CSCc2cccc(C(F)(F)F)c2)on1
2. O=C(NO)c1cc(CSc2ccc(Cl)c(Cl)c2)on1
3. COc1cccc(SCc2cc(C(=O)NO)no2)c1
4. Cc1ccc(S(=O)(=O)Cc2cc(C(=O)NO)no2)cc1
5. O=C(NO)c1cc(CSc2cccc(Cl)c2)on1
6. CC(C)c1ccccc1SCc1cc(C(=O)NO)no1
7. Cc1ccc([S+]([O-])Cc2cc(C(=O)NO)no2)cc1 (centres undefined)
8. O=C(NO)c1cc(CSc2cccc(Br)c2)on1

Ans:
[5.66, 5.70, 5.66, 5.85, 5.64, 5.12, 6.05, 5.70]

---

Test system: Staphylococcus aureus
Experiment: In vitro inhibitory activity against Staphylococcus aureus
Assay type: functional
Exercise: state measured IC50 for each of the molecules provided.
One number for each entry, in µM.

Use the examples below as a reference point.
{"columns": ["smiles notation", "numeric result"],
 "data": [
  ["O=C(NO)c1cc(CSc2ccc(Cl)cc2)on1", 1.3],
  ["CC(C)c1ccccc1S(=O)(=O)Cc1cc(C(=O)NO)no1", 3.4],
  ["O=C(NO)c1cc(CS(=O)(=O)c2cccc(Cl)c2)on1", 1.7],
  ["O=C(NO)c1cc(CSc2ccc(F)cc2)on1", 1.5],
  ["CC(=O)Nc1ccc(SCc2cc(C(=O)NO)no2)cc1", 42]
]}

List the reported IC50 of each molecule below.
1. Cc1cc(C)c(SCc2cc(C(=O)NO)no2)c(C)c1
2. O=C(NO)c1cc(CSc2ccc(C(F)(F)F)cc2)on1
3. O=C(NO)c1cc(CSc2ccccc2Br)on1
4. COc1cccc(S(=O)(=O)Cc2cc(C(=O)NO)no2)c1
5. O=C(NO)c1cc(CSc2ccccc2Cl)on1

Ans:
[37.7, 8.7, 4.9, 6.5, 3.8]
